Each entry below lists one item and its recorded peptide exchange yield value.
molecular target: T1, HLA-B*44:05 (human); assay: UV peptide exchange, anti-b2m ELISA
T1 construct: also called peptide-receptive MHC class I molecule

{"columns": ["binder", "val"],
 "data": [
  ["NEFRRKLTF", "50 to 75%"],
  ["FELECPVKY", "50 to 75%"],
  ["QETLAESTW", "50 to 75%"]
]}

Qu. Look at this binder and give its reported peptide exchange yield. SELNPLALY
Ans. 50 to 75%

Qu. // repeat for HELALRQTV and report
Ans. > 75%

Qu. // repeat for ALSPVPSHW and report
Ans. 50 to 75%

Qu. // repeat for GEGTLRLSW and report
Ans. > 75%

Qu. // repeat for EEQDFINNRY and report
Ans. > 75%
